molecular target: J2 IgG heavy chain (HC-TEV-His8);J2 IgG light chain (Mus musculus;Mus musculus, UniProt ; ;, |); assay: BLI; 200 mM KCl; BLI: 25 mM Tris-HCl pH 7.5, 2 mM MgCl2, KCl 100 mM (6-20 bp and mutants), 200 mM (30 bp) or 400 mM (40, 50 bp), 25 C; IgG immobilised on Protein A probes; conditions: protein: recombinant;recombinant; tags: His8 (C-term);; chain copies: 2;2; blunt
Sequence (chain, as listed by the source |, chain 1 of 2): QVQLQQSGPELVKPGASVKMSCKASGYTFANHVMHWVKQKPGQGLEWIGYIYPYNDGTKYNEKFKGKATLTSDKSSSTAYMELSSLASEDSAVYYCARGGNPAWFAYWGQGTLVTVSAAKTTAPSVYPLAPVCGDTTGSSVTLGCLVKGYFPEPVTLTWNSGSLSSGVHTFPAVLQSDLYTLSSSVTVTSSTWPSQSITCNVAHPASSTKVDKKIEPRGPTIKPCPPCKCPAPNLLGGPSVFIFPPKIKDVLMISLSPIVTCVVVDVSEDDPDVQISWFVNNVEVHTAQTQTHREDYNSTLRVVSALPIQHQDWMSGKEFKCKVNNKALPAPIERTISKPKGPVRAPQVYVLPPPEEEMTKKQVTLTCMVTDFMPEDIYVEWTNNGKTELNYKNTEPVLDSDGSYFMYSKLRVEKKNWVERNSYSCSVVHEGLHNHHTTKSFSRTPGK
Sequence (chain, as listed by the source |, chain 2 of 2): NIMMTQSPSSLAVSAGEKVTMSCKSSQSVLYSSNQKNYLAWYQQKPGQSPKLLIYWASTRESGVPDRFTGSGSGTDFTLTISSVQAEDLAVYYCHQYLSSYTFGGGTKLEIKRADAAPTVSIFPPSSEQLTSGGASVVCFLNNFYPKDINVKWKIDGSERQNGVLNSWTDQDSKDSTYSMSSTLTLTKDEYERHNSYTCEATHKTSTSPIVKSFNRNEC
Below, each of the binders is paired with its reported pKd value.
Keep it numeric: pKd is minus log10 of the concentration in mol/L.

In [3]: df
Out[3]:
                                     binder  reported_measurement
0  30-bp dsRNA 17% GC (dsRNA) RNA 1: GUUGUAAAUAAGUUCAAUAUUAUACUAAAU RNA 2: AUUUAGUAUAAUAUUGAACUUAUUUACAAC                  7.44

Now for a further binder.
Problem: Bench note: what pKd did 30-bp dsRNA 47% GC (dsRNA) RNA 1: GUUGUCCAGAAGGUCAAUAGCGUACCAAAC RNA 2: GUUUGGUACGCUAUUGACCUUCUGGACAAC show?
Result: 6.96

Data provenance is paper PMC12816604.
